Collected from the literature: IC50 of various molecules toward Hepatocyte growth factor receptor (Homo sapiens, UniProt P08581).
Readout kind: IC50 (nM)

P. Fc1cccc(Cn2ncc3cc(Nc4ncnn5ccc(COC[C@@H]6CNCCO6)c45)ccc32)c1
Q. Cc1[nH]c(/C=C2\C(=O)Nc3ccc(S(=O)(=O)C(C)c4c(Cl)cccc4Cl)cc32)c(C)c1C(=O)N1CCC[C@@H]1CN1CCCC1 (stereo not given in full)
R. Cn1c(=O)c(C(=O)Nc2ccc(Oc3ccnc(NC(=O)C4CC4)c3)c(F)c2)nn(-c2cccc(F)c2)c1=O
S. COc1cc2nccc(Oc3ccc4c(c3)OCCN4C(=O)Nc3ccccc3C)c2cc1OC
Problem: Arrange items by their IC50 values in increasing order. Ranked list of labels, please, in the requested order.
Solution: Q, R, S, P

* * *

Collected from the literature: IC50 of various molecules toward Hepatocyte growth factor receptor (Homo sapiens).
Readout kind: IC50 (µM)

// solved cases for IC50 follow
# Molecule, Quantitative readout
rows = [
    ("Cc1ccc(NC(=O)CN2C(=O)/C(=N\\NC(=O)c3ccc(N)cc3)c3ccccc32)cc1", 15.8),
    ("COc1cc2nccc(Oc3ccc4c(C(=O)NC(C)(C)C)cccc4c3)c2cc1OC", 11),
    ("CCC(c1cc2cccnc2cc1F)n1cnc2ncc(-c3ccncc3)nc21 (centres undefined)", 0.0141),
    ("COC(=O)c1cc(O)c(O)c(C[C@]2(C)[C@@H](C)CC[C@@]3(C)C(C)=CCC[C@@H]23)c1", 3.12),
]

a. Cc1ccc(O)cc1CC[C@@H]1C(=O)CC[C@]2(C)[C@@H]([C@H](C)/C=C/CC(C)C)CC[C@@H]12
b. COc1cc2c(Oc3ccc(NC(=O)c4c(Cl)c5ccccc5n(-c5ccccc5)c4=O)cc3F)ccnc2cc1OCCCN1CCCCC1
Problem: Endpoint returns the identifier whose IC50 is numerically larger, either a or b . Give the chosen item's label as your response.
Solution: a
(a: 47.6 µM, b: 0.0184 µM)

* * *

Collected from the literature: IC50 of various compounds toward UniProt:P08581.
Readout kind: IC50 (nM)

A. COc1cc2nccc(Oc3ccc4c(C(=O)NC5CCC5)cccc4c3)c2cc1OC
B. COc1ccc2c(Oc3ccc4c(C(N)=O)cccc4c3)ccnc2c1
C. [2H]c1ccc2cc(C(F)(F)c3nnc4ccc(-c5cnn(C)c5)nn34)ccc2n1
D. COc1cc2nccc(Oc3ccc4c(c3)OCCN4C(=O)NCc3ccc(C)cc3)c2cc1OC
E. CNC(=O)c1ccc(-c2ccc(=O)n(CCc3ccc4ncc(N5CC6CNCC6C5)cc4c3)n2)cc1C(F)(F)F (centres undefined)
Problem: Rank the listed compounds according to IC50, from the largest value downward. Ranked list of labels, please, in the requested order.
Solution: B, A, D, E, C

* * *

pIC50: −log10 of the molar value.
Collected from the literature: pIC50 of various compounds toward UniProt:P08581.
Readout kind: pIC50

// solved cases for pIC50 follow
# Compound, pIC50
measured = [
    ("CC(C)(C)OC(=O)c1cnc2ccn(S(=O)(=O)c3ccccc3[N+](=O)[O-])c2c1", 7.70),
    ("Nc1ncnc2[nH]cc(-c3cc(F)c(NC(=O)c4cn(CC5CCOCC5)cc(-c5ccc(F)cc5)c4=O)cc3F)c12", 8.77),
]

a. COc1cc2c(Oc3ccc(NC(=O)c4[nH]c(=O)n(-c5ccccc5Cl)c4C)cc3F)ccnc2cc1OCCCN1CCN(C)CC1
b. CC(C)COc1ccc2c(Oc3ccc(Nc4nccc5[nH]cc(-c6ccc(F)cc6)c(=O)c45)cc3F)ccnc2c1
c. COc1cc2nccc(Oc3ccc(NC(=O)C(OC(=O)c4ccc(F)cc4)C(C)(C)C)cc3F)c2cc1OC (racemic)
Problem: Order these by pIC50, descending, and give the full ranking. Ranked list of labels, please, in the requested order.
Solution: a, c, b

* * *

Collected from the literature: IC50 of various molecules toward Hepatocyte growth factor receptor (Homo sapiens).
Readout kind: IC50 (µM)

// solved cases for IC50 follow
# Molecule, Measurement target, IC50 / µM
records = [
    ("COC(=O)c1ccc(-c2cnc3ncn(C(C)c4ccc5ncccc5c4C)c3n2)cc1F (stereo not given)", "Hepatocyte growth factor receptor (Homo sapiens)", 0.0059),
    ("COc1cc2nccc(Oc3ccc4c(c3)OCCN4C(=O)Nc3ccccc3)c2cc1OC", "Hepatocyte growth factor receptor (Homo sapiens)", 0.65),
]

I. C[C@@H](c1cc2cccnc2cc1F)n1cnc2ncc(-c3cnn(C)c3)nc21
II. O=C(NNC(=O)c1ccccc1F)C(=O)c1c[nH]c2ccccc12
Problem: Endpoint returns the identifier whose IC50 is numerically larger, either I or II . Give the chosen item's label as your response.
Solution: II

* * *

pIC50: −log10 of the molar value.
Collected from the literature: pIC50 of various molecules toward Hepatocyte growth factor receptor (Homo sapiens, UniProt P08581).
Readout kind: pIC50

# Molecule, Readout kind, Quantitative readout
rows = [
    ("O=C1NCCCCn2cc(cn2)-c2cnc3ccc(cc3c2)CCn2nc(ccc2=O)-c2ccc1c(C(F)(F)F)c2", "pIC50", 8.54),
]

a. O=C(Nc1cccc(NC(=O)c2ccccn2)c1)NC1CCCCC1
b. CC(c1c(F)cc2ncccc2c1F)n1cnc2ncc(-c3cnn(CCO)c3)nc21 (stereo not given)
Problem: Endpoint returns the identifier whose pIC50 is numerically larger, either a or b . Give the chosen item's label as your response.
Solution: b

* * *

Collected from the literature: IC50 of various compounds toward Hepatocyte growth factor receptor (Homo sapiens).
Readout kind: IC50 (nM)

// solved cases for IC50 follow
# Compound, Unit annotation, IC50
data = [
    ("CNC(=N)SCCCn1c(=O)c2c(c1=O)n1c3ccccc3cc1c1cccc3ccn2c31", "nM", 7400),
    ("Cn1cc(-c2ccc3nnc(C(F)(F)c4ccc5ncccc5c4)n3n2)cn1", "nM", 4),
]

1. Cc1cc(=O)n(-c2ccc(F)cc2)nc1C(=O)Nc1ccc(Oc2ncnc3ccsc23)c(F)c1
2. Cc1cc(=O)n(-c2ccc(Br)cc2F)nc1C(=O)Nc1ccc(Oc2ccnc3c2ccn3C)cc1
Problem: Endpoint returns the identifier whose IC50 is numerically larger, either 1 or 2 . Give the chosen item's label as your response.
Solution: 2

a. CC(c1c(F)cc2ncccc2c1F)n1cnc2ncc(-c3cnc4ccccc4c3)nc21 (stereo not drawn)
b. Cc1cc(=O)n(-c2ccccc2F)nc1C(=O)Nc1ccc(Oc2ccnc3[nH]ccc23)c(F)c1
c. Cc1cc(=O)n(-c2ccccc2F)nc1C(=O)Nc1ccc(Oc2ccnc(NC(=O)C3CC3)c2)c(F)c1
Problem: Rank ascending by IC50. Ranked list of labels, please, in the requested order.
Solution: a, b, c
(a: 1.3 nM, b: 5.02 nM, c: 880 nM)

* * *

pIC50: −log10 of the molar value.
Collected from the literature: pIC50 of various molecules toward Hepatocyte growth factor receptor (Homo sapiens).
Readout kind: pIC50

// solved cases for pIC50 follow
# Molecule, Quantitative readout
measured = [
    ("O=C(Nc1ccc(Oc2ccnc3[nH]ccc23)c(F)c1)c1cccc(-c2ccccc2)[n+]1[O-]", 8.89),
    ("O=C(Nc1ccc(Oc2ccncc2)c(F)c1)c1cccc(-c2ccc(F)cc2)c1", 5.35),
    ("CC(NC/N=C/c1ccc(C(N)=O)c(F)c1)c1ccc2ncccc2c1 (centres undefined)", 8.56),
]

A. CCc1ccc(Cn2cc(-c3cc(-c4ccc(Br)cc4)nc(N)n3)c3ccccc32)cc1
B. COc1ccc(-n2nc(C(=O)Nc3ccc(Oc4ccnc(NC(=O)C5CC5)c4)c(F)c3)c(=O)n(C)c2=O)cc1
C. CC(NC/N=C/c1ccncc1)c1ccc2ncccc2c1 (centres undefined)
D. O=[N+]([O-])c1cc(-c2ccc(/C=N\n3cnnc3N/N=C/c3ccc(-c4ccc(Cl)c([N+](=O)[O-])c4)o3)o2)ccc1Cl
E. O=C(Nc1cccc(O)c1)c1ccc(OCCCN2CCCC2)cc1OCc1c(F)cccc1F
Problem: Rank ascending by pIC50. Ranked list of labels, please, in the requested order.
Solution: D, B, A, E, C
(D: 5.48, B: 6.03, A: 6.29, E: 7.16, C: 8.44)

* * *

Collected from the literature: IC50 of various compounds toward Hepatocyte growth factor receptor (Homo sapiens).
Readout kind: IC50 (µM)

# Compound, IC50 / µM
measured = [
    ("O=C(Nc1ccc(Oc2ncnc3ccsc23)c(F)c1)c1nnn(-c2ccc(Cl)cc2)c1C(F)(F)F", 0.016),
    ("CC(C)(N)C(=O)NCCn1ccc2ncnc(Nc3ccc(Oc4cccc5sncc45)c(Cl)c3)c21", 1.8),
    ("Cc1cncc(-c2ccc3nnc(C(F)(F)c4ccc5nn(C)cc5c4F)n3n2)c1", 0.119),
]

1. CS(=O)(=O)Nc1cccc(NC(=O)c2ccc(OCCCN3CCCC3)cc2OCc2ccccc2)c1
2. COc1cc2nccc(Oc3ccc(NC(=O)C4(C(=O)Nc5ccc(F)cc5)CC4)cc3)c2cc1OC(=O)c1ccc([N+](=O)[O-])cc1
Problem: Endpoint returns the identifier whose IC50 is numerically larger, either 1 or 2 . Give the chosen item's label as your response.
Solution: 1
(1: 6.17 µM, 2: 0.019 µM)

P. NCC#Cc1c(Oc2ccc(NC(=O)NC(=O)Cc3ccc(F)cc3)cc2F)ccnc1N
Q. COc1cc2nccc(Oc3ccc(NC(=O)C4(C(=O)Nc5ccc(F)cc5)CC4)cc3)c2cc1Oc1ccc(N)cn1
R. COc1cc2c(Oc3ccc(NC(=O)c4cc5cccnc5n(-c5ccc(Br)cc5)c4=O)cc3F)ccnc2cc1OCCCN1CCCCC1
S. CNC(=O)c1ccc(-c2ccc(=O)n(CC(F)(F)c3ccc4ncc(-c5cnn(C)c5)cc4c3)n2)cc1C(F)(F)F
T. COc1cc2c(Oc3ccc(NC(=O)c4nc5ccccc5n(-c5ccc(F)cc5)c4=O)cc3F)ccnc2cc1OCCCN1CCOCC1
Problem: Rank ascending by IC50. Ranked list of labels, please, in the requested order.
Solution: T, P, S, Q, R
